Target: KSP motor domain (Homo sapiens)
Sequence (P52732 18-359 limits assumed): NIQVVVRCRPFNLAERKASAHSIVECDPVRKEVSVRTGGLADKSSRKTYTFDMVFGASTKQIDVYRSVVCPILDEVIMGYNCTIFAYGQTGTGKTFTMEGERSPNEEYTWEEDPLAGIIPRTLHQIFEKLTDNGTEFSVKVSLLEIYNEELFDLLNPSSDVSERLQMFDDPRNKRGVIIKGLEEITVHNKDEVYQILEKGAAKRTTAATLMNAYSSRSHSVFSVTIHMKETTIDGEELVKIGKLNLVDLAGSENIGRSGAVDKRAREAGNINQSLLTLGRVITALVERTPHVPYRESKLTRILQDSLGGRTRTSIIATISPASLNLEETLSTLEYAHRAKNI
Assay: biochemical
Conditions: KSP inhibitory activity, end-point assay; class symbols (Table 1); read-out: IC50
Parameter IC50: see the listing below.
Experimental readout: IC50

INSERT INTO measurements (compound, experimental_readout, result) VALUES
  ('Cn1ccc(C(=O)Nc2cccc([C@@H](CNCCO)NC(=O)c3cc4cc5c(nc4s3)CC[C@@H](C(C)(C)C)C5)c2)n1 [Example 268]', 'IC50', '< 100 nM'),
  ('CC(C)[C@@H](CO)NC(=O)c1cc2cc3c(nc2s1)CCC(C(C)(C)C)C3 (stereo partly drawn) [Example 157]', 'IC50', '> 10000 nM'),
  ('Cn1nccc1C(=O)Nc1cccc([C@@H](CN)NC(=O)c2cc3cc4c(nc3s2)CC[C@@H](C(C)(C)C)C4)c1 [Example 238]', 'IC50', '< 100 nM'),
  ('CCC(C)(C)C1CCc2nc3sc(C#N)c(N)c3c(SC)c2C1 (stereo not drawn) [Example 54]', 'IC50', '> 10000 nM'),
  ('N#Cc1sc2nc3c(cc2c1N)CC(C(F)(F)F)CC3 (stereo not drawn) [Example 14]', 'IC50', '1000 to 10000 nM'),
  ('COC(=O)C(CO)NC(=O)c1cc2cc3c(nc2s1)CCC(C(C)(C)C)C3 (stereo not drawn) [Example 94]', 'IC50', '100 to 1000 nM'),
  ('CC(C)(C)C1CCc2nc3sccc3cc2C1 (stereo not drawn) [Example 105]', 'IC50', '1000 to 10000 nM'),
  ('CC(C)(C)C1CCc2nc3sc(C(=O)NCC4CCNCC4)cc3cc2C1 (stereo not drawn) [Example 195]', 'IC50', '1000 to 10000 nM'),
  ('CC(C)(C)C1CCc2nc3sc(C(=O)NCCN4CCOCC4)cc3cc2C1 (stereo not drawn) [Example 194]', 'IC50', '1000 to 10000 nM'),
  ('CC(C)CCC1CCc2nc3sc(C#N)c(N)c3cc2C1 (stereo not drawn) [Example 20]', 'IC50', '> 10000 nM'),
  ('CC(C)(C)C1CCc2nc3sc(NC(N)=O)nc3cc2C1 (stereo not drawn) [Example 132]', 'IC50', '1000 to 10000 nM'),
  ('CC(C)(C)C1CCc2nc3sc(C#N)cc3cc2C1 (racemic) [Example 58]', 'IC50', '100 to 1000 nM'),
  ('CC(C)(C)OC(=O)N1CCc2nc3sc(C#N)c(N)c3cc2C1 [Example 42]', 'IC50', '> 10000 nM'),
  ('CC(C)(C)C1CCc2nc3sc(C(=O)NCC(=N)N)cc3cc2C1 (stereo not drawn) [Example 168]', 'IC50', '< 100 nM'),
  ('CCCCCC1CCc2nc3sc(C#N)c(N)c3cc2C1 (stereo not drawn) [Example 19]', 'IC50', '> 10000 nM'),
  ('CC(C)(C)C1CCc2nc3sc(CO)cc3cc2C1 (stereo not drawn) [Example 144]', 'IC50', '< 100 nM'),
  ('Cc1nnsc1C(=O)Nc1cccc([C@@H](CN)NC(=O)c2cc3cc4c(nc3s2)CC[C@@H](C(C)(C)C)C4)c1 [Example 258]', 'IC50', '< 100 nM'),
  ('CC(C)C(C)(C)C1CCc2nc3sc(C#N)c(N)c3cc2C1 (stereo not drawn) [Example 7]', 'IC50', '> 10000 nM');
